- TARGET OF ASSAY: MEK1^CA (human GST-MEK1, constitutively active, Ser218Asp and Ser222Asp) (Homo sapiens, UniProt Q02750, S218D/S222D)
- Construct: GST; made in house; host or cells: Escherichia coli
- Sequence (Q02750 whole entry S218D/S222D): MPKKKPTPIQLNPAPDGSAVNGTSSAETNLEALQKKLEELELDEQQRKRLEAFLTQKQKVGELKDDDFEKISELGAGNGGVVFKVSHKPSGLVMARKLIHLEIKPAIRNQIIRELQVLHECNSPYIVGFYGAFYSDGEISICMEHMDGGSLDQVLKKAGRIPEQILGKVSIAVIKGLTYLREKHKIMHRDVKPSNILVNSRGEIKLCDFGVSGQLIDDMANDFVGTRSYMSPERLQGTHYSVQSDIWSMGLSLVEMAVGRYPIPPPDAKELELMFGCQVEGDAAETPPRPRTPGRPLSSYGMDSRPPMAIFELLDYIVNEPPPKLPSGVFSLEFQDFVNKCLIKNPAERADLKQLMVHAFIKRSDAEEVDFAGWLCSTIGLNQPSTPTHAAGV
- METHOD: MEK1 enzymatic activity assay (MEK1^CA / ERK2 / MBP, [γ-33P]ATP incorporation)
- Type: biochemical
- PARTICULARS: Table 1, compounds of formula I; read-out: Avg IC50
pIC50: −log10 of the molar value.

| COMPOUND | pIC50 |
| --- | --- |
| CC(C)NC(=N)c1c(O)nsc1Nc1ccc(Oc2ccc(F)cc2)c(Br)c1 | 6.30 to 7.00 |
| N=C(NCCO)c1c(O)nsc1Nc1ccc(Oc2ccc(F)cc2)c(Br)c1 | < 6.30 |
| CN1CCCC1CCNC(=N)c1c(O)nsc1Nc1ccc(Oc2ccccc2)cc1 (stereo not drawn) | < 6.30 |
| CCCCc1ccc(Nc2snc(O)c2C(=N)NCC2CCCCC2)cc1 | 6.30 to 7.00 |
| CC(C)c1ccc(Nc2snc(O)c2C(N)=NCC(O)CO)cc1 (stereo not drawn) | 6.30 to 7.00 |
| CC(CO)NC(=N)c1c(O)nsc1Nc1ccc(Oc2ccccc2F)cc1 (stereo not drawn) | 6.30 to 7.00 |
| CC(CO)NC(=N)c1c(O)nsc1Nc1ccc(Oc2cc(C(F)(F)F)ccc2Cl)cc1F (stereo not drawn) | 7.00 to 9.00 |
| N=C(NCC1CCCCC1)c1c(O)nsc1Nc1cccc(Cl)c1Cl | < 6.30 |
| N=C(NCC(O)CO)c1c(O)nsc1Nc1ccc([C@H]2CC[C@H](O)CC2)cc1 (stereo partly drawn) | < 6.30 |
| CC(CO)NC(=N)c1c(O)nsc1Nc1ccc(Oc2ccccc2)nc1 (stereo not drawn) | < 6.30 |
| CCCCCNc1snc(O)c1C(=N)NCC1CCCCC1 | < 6.30 |
| CC(CO)/N=C(\N)c1c(O)nsc1Nc1ccc(Oc2ccccc2)cc1 (stereo not drawn) | 7.00 to 9.00 |
| CC(C)NC(=N)c1c(O)nsc1Nc1ccc(Oc2cc(F)cc(F)c2)cc1 | 7.00 to 9.00 |
| CC(C)NC(=N)c1c(O)nsc1Nc1ccc(Oc2cc(F)cc(C(F)(F)F)c2)cc1 | 6.30 to 7.00 |
| Cc1cccc(Oc2ccc(Nc3snc(O)c3C(=N)NC(C)CO)cc2)c1 (stereo not drawn) | 7.00 to 9.00 |
| N=C(NCCN1CCOCC1)c1c(Nc2ccc(Oc3ccccc3)cc2)s[nH]c1=O [Cpd 26] | < 6.30 |
| N=C(NCC(O)CO)c1c(O)nsc1Nc1cc(F)c(Oc2cc(Cl)ccc2Cl)cc1F (stereo not drawn) | 7.00 to 9.00 |
| N=C(NN1CCCCC1)c1c(O)nsc1Nc1ccc(Oc2cc(F)cc(F)c2)cc1 | 7.00 to 9.00 |

Data provenance is patent US7652047B2.
